Test system: LXRb homodimer (NR concentration 270 nM)
Test: PBM binding z-score (relative to random genomic background probes); higher = stronger binding; sequences stand for … in GC…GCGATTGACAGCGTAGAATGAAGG
Would you mind labelling by PBM binding z-score? At or over -0.2 is criterion met, under is criterion not met.

>  <CONSTRUCT SEQUENCE>
ACTAGCAGGCCAAGGTTCACTCAAGATTAGTCCG

>  <TEST TARGET>
LXRb homodimer (NR concentration 270 nM)

>  <GROUP LABEL>
criterion met

$$$$
>  <CONSTRUCT SEQUENCE>
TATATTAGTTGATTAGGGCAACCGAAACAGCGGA

>  <TEST TARGET>
LXRb homodimer (NR concentration 270 nM)

>  <GROUP LABEL>
criterion met

$$$$
>  <CONSTRUCT SEQUENCE>
ATCTCTTGGTAACAAGTTCAGTGAAAGAGAGGAC

>  <TEST TARGET>
LXRb homodimer (NR concentration 270 nM)

>  <GROUP LABEL>
criterion met

$$$$
>  <CONSTRUCT SEQUENCE>
CGAACTAGGTCATCCAGGACAGTTAATACATTGA

>  <TEST TARGET>
LXRb homodimer (NR concentration 270 nM)

>  <GROUP LABEL>
criterion met

$$$$
>  <CONSTRUCT SEQUENCE>
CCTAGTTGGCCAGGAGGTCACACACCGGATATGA

>  <TEST TARGET>
LXRb homodimer (NR concentration 270 nM)

>  <GROUP LABEL>
criterion met

$$$$
>  <CONSTRUCT SEQUENCE>
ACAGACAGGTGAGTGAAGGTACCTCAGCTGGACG

>  <TEST TARGET>
LXRb homodimer (NR concentration 270 nM)

>  <GROUP LABEL>
criterion not met

$$$$
>  <CONSTRUCT SEQUENCE>
GCTCTTAGTTGAAAGGGCAACCGAATGATTCTCG

>  <TEST TARGET>
LXRb homodimer (NR concentration 270 nM)

>  <GROUP LABEL>
criterion met

$$$$
>  <CONSTRUCT SEQUENCE>
CCTACTGGGCCAAGGTCATTTATCAGTCAAAGCA

>  <TEST TARGET>
LXRb homodimer (NR concentration 270 nM)

>  <GROUP LABEL>
criterion met

$$$$
>  <CONSTRUCT SEQUENCE>
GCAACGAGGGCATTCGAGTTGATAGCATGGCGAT

>  <TEST TARGET>
LXRb homodimer (NR concentration 270 nM)

>  <GROUP LABEL>
criterion not met

$$$$
>  <CONSTRUCT SEQUENCE>
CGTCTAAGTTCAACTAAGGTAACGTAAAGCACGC

>  <TEST TARGET>
LXRb homodimer (NR concentration 270 nM)

>  <GROUP LABEL>
criterion met

$$$$
>  <CONSTRUCT SEQUENCE>
GCTAGCAGGCCATTTGGGTCCCTCAATGACGGGC

>  <TEST TARGET>
LXRb homodimer (NR concentration 270 nM)

>  <GROUP LABEL>
criterion not met

$$$$

Recorded values, source the supplement of paper PMC6555819.
